Recorded pEC50 by entry
- Target Desc: hGLP-1R (Homo sapiens)
- Sequence (P43220 24-463): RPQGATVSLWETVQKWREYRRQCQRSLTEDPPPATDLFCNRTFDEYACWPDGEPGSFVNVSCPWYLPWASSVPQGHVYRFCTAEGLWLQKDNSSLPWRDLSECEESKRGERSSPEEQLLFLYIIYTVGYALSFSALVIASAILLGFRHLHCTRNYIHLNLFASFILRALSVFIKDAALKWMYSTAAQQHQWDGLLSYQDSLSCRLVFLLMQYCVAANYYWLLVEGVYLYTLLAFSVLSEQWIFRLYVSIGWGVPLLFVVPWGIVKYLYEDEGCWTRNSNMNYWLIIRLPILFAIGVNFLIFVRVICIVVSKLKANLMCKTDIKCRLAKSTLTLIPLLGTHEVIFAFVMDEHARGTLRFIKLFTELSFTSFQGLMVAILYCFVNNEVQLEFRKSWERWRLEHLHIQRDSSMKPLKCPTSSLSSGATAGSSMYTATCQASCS
- Procedure Summary: Functional cAMP activity in the presence of 1% HSA
- Type: cell-based
- Recorded Conditions: read-out: cAMP Rel EC50, hGLP-1R
Starred links: 1 amine or outer side, 2 acyl side, 3 side chain; linkers in the order of their positions; H or OH if unused. Non-standard residues stand in square brackets, D forms with d. Groups on a side chain read outwards from the residue. No end group written: not given here. *: point of attachment. C20 diacid = O=C(O)CCCCCCCCCCCCCCCCCCC(=O)*; C18 diacid = O=C(O)CCCCCCCCCCCCCCCCC(=O)*; αMePhe(2-F) = C[C@](N)(Cc1ccccc1F)C(=O)O; γGlu = O=C(O)[C@H](CCC(=O)[*:2])N[*:1]; NMeY = CN[C@@H](Cc1ccc(O)cc1)C(=O)O; αMe4Pal = C[C@](N)(Cc1ccncc1)C(=O)O; αMeY = C[C@](N)(Cc1ccc(O)cc1)C(=O)O; αMeF = C[C@](N)(Cc1ccccc1)C(=O)O; 4Pal = N[C@@H](Cc1ccncc1)C(=O)O; αMeL = CC(C)C[C@](C)(N)C(=O)O; αMeS = C[C@](N)(CO)C(=O)O; Orn = NCCC[C@H](N)C(=O)O; AEEA = NCCOCCOCC(=O)O; Aib = CC(C)(N)C(=O)O
// pEC50 here means minus log10 of the molar concentration (mol/L)

These solved cases illustrate the format of a correct answer.
[
  {
    "Substance": "Y[Aib]QGT[αMePhe(2-F)]TSD[4Pal][αMeS]I[αMeL]LD[Orn]K([AEEA-γGlu-C18 diacid])AQ[αMe4Pal]EFI[dQ][αMeY]LIEGGPSSGAPPPSGS-NH2 [Example 1202]",
    "Number": 7.64
  },
  {
    "Substance": "H-Y[Aib]QGTFTSDYSK[αMeL]LDKK([AEEA-γGlu-C20 diacid])AQQAFVQWLIEGGPSSGEPPPSEG-NH2 [Example 315]",
    "Number": 6.85
  },
  {
    "Substance": "H-Y[Aib]QGTFTSDFS[Orn][αMeL]LDKK([AEEA-AEEA-γGlu-C18 diacid])AQ[Aib]AFIEYLLE[Aib]GPSSGEPPPEGS-NH2 [Example 195]",
    "Number": 6.08
  }
]

# input Query pEC50 for H-Y[Aib]QGT[αMePhe(2-F)]TSD[4Pal][αMeS]ILLD[Orn]K([γGlu-γGlu-C18 diacid])AQ[Aib][Orn]FI[dE][αMeY]LQEGGPSSGEPPPEGAEE-NH2 [Example 574]
# output 7.43

# input Query pEC50 for H-Y[Aib]QGT[αMePhe(2-F)]TSD[4Pal][αMeS]ILLD[Orn]K([γGlu-γGlu-C18 diacid])AQ[Aib][Orn]FI[dE][αMeY]LQEGGPSSGEPPPSGAE-NH2 [Example 547]
# output 7.56

# input Query pEC50 for H-Y[Aib]QGTFTSDFS[Orn][αMeL]LDKK([AEEA-γGlu-C18 diacid])AQ[Aib]AFIEWLLEGGHSSGAPPPSGT-NH2 [Example 171]
# output 6.54

# input Query pEC50 for H-Y[Aib]QGTFTSDFS[Orn][αMeL]LDKK([AEEA-γGlu-C18 diacid])AQ[Aib]AFIEYLLEGGPSSGAPPPGGE-NH2 [Example 63]
# output 6.46

# input Query pEC50 for H-Y[Aib]QGT[αMePhe(2-F)]TSD[4Pal]SILLD[Orn]K([γGlu-γGlu-C18 diacid])AQ[Aib]AFIEYLEEGGPSSGAPPPSGTGE-NH2 [Example 514]
# output 7.09

# input Query pEC50 for H-Y[Aib]Q[dA]T[αMePhe(2-F)]TSD[4Pal][αMeS]I[αMeL]LD[Orn]K([AEEA-γGlu-C18 diacid])AQ[Aib]EFI[dE][αMeY]LIEGGPSSGAPPPSGSE-NH2 [Example 1222]
# output 7.35

# input Query pEC50 for H-Y[Aib]QGTFTSD[4Pal]S[Orn][αMeL]LDKK([γGlu-γGlu-C18 diacid])AQ[αMe4Pal]AFIE[αMe4Pal]LIEGGPSSGAPPPSGS-NH2 [Example 952]
# output 6.36

# input Query pEC50 for H-[NMeY][Aib]QGT[αMeF]TSDYSSLLDKIAAK([AEEA-AEEA-γGlu-C20 diacid])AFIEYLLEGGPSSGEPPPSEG-NH2 [Example 297]
# output 5.95
